# target-system: Aryl hydrocarbon receptor (Homo sapiens)
# procedure-text: qHTS assay to identify small molecule that activate the aryl hydrocarbon receptor (AhR) signaling pathway (AID 743085); further: nearly all actives have a fitted effect of over 15% in size;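 on activation: HG2L7.5c1 human HepG2 liver cells with stably integrated DRE-driven firefly reporter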
# test-context: HepG2 AhR-luc (HG2L7.5c1), luciferase, 24 h; series mostly up to 70.3 µM
Inconclusive results are not listed. Activity calls are given as the source filed them. The call rests on the fitted dose curve; in most records, active means well fitted activation curve with a large enough effect in the repeat runs; inconclusive means weak or mixed curves; inactive means no such curve, though single readings can be large or run the other way.
Pick one: t (active), f (inactive)

Study these solved cases before continuing.
O=C(O)CCCc1ccc(N(CCCl)CCCl)cc1 ... f
O=C(O)COc1ccccc1 ... f
N#Cc1ccccn1 ... f
c1ccc2c(c1)CCCC2 ... f
CN(C)NC(=O)CCC(=O)O ... f

For this compound, state the assay outcome: OCC(O)CCl (stereo not drawn)
f

For this compound, state the assay outcome: C=CC#N
f

For this compound, state the assay outcome: Cc1ccccc1N
f

For this compound, state the assay outcome: CC(C)CCCCCCOC(=O)c1ccccc1C(=O)OCCCCCCC(C)C
f

For this compound, state the assay outcome: CNc1cnn(-c2cccc(C(F)(F)F)c2)c(=O)c1Cl
t

For this compound, state the assay outcome: Cc1cccc(C)c1N
f

For this compound, state the assay outcome: CN(C)C(=O)Cl
f

For this compound, state the assay outcome: CC(=O)/C=C/c1ccccc1
f

For this compound, state the assay outcome: COP(=S)(OC)SCN1C(=O)c2ccccc2C1=O
f

For this compound, state the assay outcome: CNC(=O)O/N=C/C(C)(C)S(C)(=O)=O
f

For this compound, state the assay outcome: CNC(=O)O/N=C(\SC)C(=O)N(C)C
f

For this compound, state the assay outcome: COS(=O)(=O)OC
f

For this compound, state the assay outcome: Clc1cnc(Oc2ccc(Oc3ncc(Cl)cc3Cl)cc2)c(Cl)c1
f

====

# procedure-text: qHTS assay to identify small molecule agonists of H2AX (AID 1224845)
# test-context: CHO-K1 phospho-H2AX Ser139 HTRF, 3 h; series mostly up to 154 µM
Results filed as inconclusive are left out. The source made the active and inactive calls. The call rests on the fitted dose curve; in most records, active means well fitted activation curve with a large enough effect in the signal ratio in the repeat runs (not every such curve was filed as active); inconclusive means weak or mixed curves; inactive means flat fitted curve, though single readings scatter; the % refers to the signal ratio.
measured-parameter: outcome

OCC(O)CCl (stereo unspecified) ... inactive
Nc1ccc(N)cc1 ... inactive
OCc1ccco1 ... inactive
c1ccc2c(c1)CCCC2 ... inactive
CCOP(=S)(OCC)Oc1ccc([N+](=O)[O-])cc1 ... inactive
CCOP(=S)(OCC)Oc1cc(C)nc(C(C)C)n1 ... inactive

Entry ClC(Cl)c1ccccc1 has what outcome?
inactive

Entry CCCCCCCCCCCCCCCCCC(=O)O has what outcome?
inactive

Entry COC(C)(C)CCCC(C)C/C=C/C(C)=C/C(=O)OC(C)C (stereo unspecified) has what outcome?
inactive

Entry Cc1cccc(C)c1N has what outcome?
inactive

====

# target-system: Nuclear receptor subfamily 1 group I member 2 (Homo sapiens) (UniProt O75469)
# Sequence (O75469 whole entry, looked up): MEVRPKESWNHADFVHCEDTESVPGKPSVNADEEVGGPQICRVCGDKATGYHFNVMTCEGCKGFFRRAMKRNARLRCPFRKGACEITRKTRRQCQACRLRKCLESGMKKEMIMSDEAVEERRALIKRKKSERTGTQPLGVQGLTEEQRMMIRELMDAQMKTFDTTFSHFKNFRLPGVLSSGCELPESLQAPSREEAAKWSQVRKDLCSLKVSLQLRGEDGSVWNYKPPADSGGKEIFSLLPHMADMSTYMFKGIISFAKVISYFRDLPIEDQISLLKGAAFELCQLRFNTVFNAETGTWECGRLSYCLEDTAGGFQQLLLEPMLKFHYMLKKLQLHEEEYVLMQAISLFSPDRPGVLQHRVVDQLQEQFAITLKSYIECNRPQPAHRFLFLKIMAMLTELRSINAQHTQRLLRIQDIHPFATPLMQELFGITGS
# procedure-text: Human pregnane X receptor (PXR) small molecule agonists, qHTS assay (AID 1346982); further: nearly all actives have a fitted effect of over 35% in size
# test-context: PXR-Luc HepG2, CYP3A4 luciferase reporter, 24 h; series mostly up to 92.4 µM
Inconclusive results are not listed. The source made the active and inactive calls. Calls follow the shape of the dose curve; as a rule, active = well fitted activation curve with a large enough effect in the repeat runs; inconclusive = weak or mixed curves; inactive = no such curve, though single readings can be large or run the other way.
Pick one: T = active, F = inactive

Study these solved cases before continuing.
Nc1ncc([N+](=O)[O-])s1 ... F
N#Cc1cccc(C#N)c1 ... F
O=C(O)C1C(C(=O)O)C2(Cl)C(Cl)=C(Cl)C1(Cl)C2(Cl)Cl (stereo unspecified) ... F
CCCOC(=O)c1ccccc1C(=O)OCCC ... F
Cc1cccc(N)c1C ... T
CNC(=O)O/N=C/C(C)(C)S(C)(=O)=O ... F
Nc1cccc(Cl)c1 ... F
Nc1ccc(N)cc1 ... T
CCOP(=S)(OCC)Oc1ccc([N+](=O)[O-])cc1 ... T
O=S(=O)(O)OOS(=O)(=O)O ... F

For this compound, state the assay outcome: CC(=O)C1CCOC1=O (stereo unspecified)
F
